- assay-comment: Acute toxicity and lethalness of sorbose in mice
- Type: in vivo, ROCKFELLER mouse
- settings: mouse, in vivo, ip; intraperitoneal; ROCKFELLER mice; Karber and Behrens method; read-out: lethal dose 50 (LD50)
assay-readout: LD50
# do not omit the unit; it follows the number

*Q* Which LD50 value belongs to "O=C(CO)[C@H](O)[C@@H](O)[C@H](O)CO" ?
*A* 13600 mg/kg

* * *

- assay-comment: Acute toxicity and lethalness of sorbose in rats
- Assay type: in vivo, WISTAR rat
- settings: rat, in vivo, ip; intraperitoneal; WISTAR rats; Karber and Behrens method; read-out: lethal dose 50 (LD50)
- Procedure: The toxicity of sorbose has been studied in a first series of tests. The test animals were ROCKFELLER mice and WISTAR rats. Thus, solutes of sorbose (concentrations used: 615, 700, 900, 1000 and 1100 mg per ml) were administered orally, intravenously and intraperitoneally in different doses and concentrations to male mice of the ROCKFELLER type and to male rats of the WISTAR type.
assay-readout: LD50 (mg/kg)
Numeric answer only, unit mg/kg assumed.

*Q* Which LD50 value belongs to "O=C(CO)[C@H](O)[C@@H](O)[C@H](O)CO" ?
*A* 12800
